Assay: NCI Yeast Anticancer Drug Screen. Data for the rad50EPP+ strain (AID 151);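 note: 0% = growth of vehicle-treated control cultures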
Conditions: S. cerevisiae rad50 mutant strain, at 33.0 µM
The panel holds about 79,000 compounds, 15% with a hit somewhere; the sample as a whole holds those more often. The source made the active and inactive calls. Cut-off read from the data, not from the text of the source: active = growth inhibition above about 70%; inactive = the rest.
Return exactly one item of active, inactive

O=C1C=C(Br)C(=O)c2ccccc21; active
O=C1C(/C=C/c2ccc(Cl)cc2)=NNC2N1N=C1NC(=O)C3(NN12)c1ccccc1-c1ccccc13 (stereo unspecified); inactive
O=C(CCSC1=NCCCN1)c1ccc(F)cc1; inactive
CC(C)NCCCNc1c2ccccc2nc2cccc([N+](=O)[O-])c12; active
O=C1SS(=O)c2ccccc21 (stereo unspecified); inactive
Cc1cccc2c(Cl)c3cccc(C)c3nc12; inactive
O=C(Nn1c(-c2ccccc2)nc2ccccc2c1=O)c1ccc(CS)cc1; inactive
CN(C)/C(=N/C(=S)Nc1ccccc1)SCc1ccccc1; inactive
COC(=O)C1=C(C(=O)OC)CC(n2nnc(C(=O)OC)c2C(=O)OC)=CC1; inactive
O=C(Cc1ccccc1)NNc1nc(NNC(=O)c2ccncc2)nc(Nc2ccc([N+](=O)[O-])cc2)n1; inactive

# next compound below
Problem: Could you check what this test reported for O=C(O)c1c2ccc(Cl)cc2nc2[nH]c(=O)[nH]c(=O)c12 ?
Solution: inactive

====

Readings of growth inhibition for the listed compounds
Assay: NCI Yeast Anticancer Drug Screen. Data for the rad50 strain (AID 155);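 note: 0% = growth of vehicle-only cultures of the same strain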
Settings: S. cerevisiae rad50 strain growth inhibition; at 1.2 µM; active compounds read high
This is part of a sample that, as a whole, favours compounds with a hit. Of some 79,000 tested, about 15% had one in any assay. Residues, ends and D or L forms follow the SMILES beside them. *: point of attachment. Fmoc = O=C(OCC1c2ccccc2-c2ccccc21)*; Boc = CC(C)(C)OC(=O)*
Just the number please, in %, no unit attached.

The following compounds have reported results that may help.
O=C1c2ccccc2N2OC3(N4CCCC4)CCCCC3C12c1ccccc1 (stereo unspecified); 5
CC(C)S(=O)(=O)/C=C\S(=O)(=O)C(C)C; -5

Problem: Any idea what its growth inhibition is? The compound is CC(C)(C)OC(=O)NCCCCC(NC(=O)C(Cc1c[nH]c2ccccc12)NC(=O)OCC1c2ccccc2-c2ccccc21)C(=O)O (stereo unspecified) (Fmoc-Trp-Lys(Boc)-OH; configuration not given here)
Solution: -3

Problem: If you can, please state the reported growth inhibition value of O=C1Oc2ccccc2C(=O)/C1=C/N1C(=O)N/C(=C\c2ccccc2Br)C1=O .
Solution: -2

====

Assay: NCI Yeast Anticancer Drug Screen. Data for the rad50 strain (AID 155);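 note: 0% = growth of vehicle-only cultures of the same strain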
Details: S. cerevisiae rad50 strain growth inhibition; at 5.0 µM (retest, dose inferred, filed as 0.5)
The panel holds about 79,000 compounds, 15% with a hit somewhere; the sample as a whole holds those more often. Calls of active or inactive are those of the source. Cut-off read from the data, not from the text of the source: active = growth inhibition above about 70%; inactive = the rest.
Can you answer with just one of these options? active, inactive

CC(C)(C)c1ccc2c(c1)C(=O)c1ccccc1C2=O; inactive
O=C(Nc1ccc(Cl)cc1)c1cc2cc(N=Nc3ccccc3Cl)ccc2oc1=O; inactive
CCCCS/C(=C(/C#N)C(N)=O)c1cc2c([nH]1)CCCC2; inactive
O=C1Nc2ccc(Br)cc2C1=Nc1cccnc1; inactive
COc1ccc(C2CC(C)(N3CCCC3)Oc3cc4c(cc32)OCO4)cc1 (configuration not stated); inactive
C=C(C(=O)OC)N1C(=O)CC(C)C1=O (configuration not stated); inactive

Problem: Record request — test call for c1ccc(-c2cc(C3CO3)c3ccccc3n2)cc1 (configuration not stated)
Solution: inactive

The origin of these recorded values is PubChem BioAssay (NCI).
